Where do these numbers come from? They come from patent US11179391B2.

- SYSTEM: CDK7/CyclinH/MAT1 (Homo sapiens)
- Sequence (P50613 whole entry): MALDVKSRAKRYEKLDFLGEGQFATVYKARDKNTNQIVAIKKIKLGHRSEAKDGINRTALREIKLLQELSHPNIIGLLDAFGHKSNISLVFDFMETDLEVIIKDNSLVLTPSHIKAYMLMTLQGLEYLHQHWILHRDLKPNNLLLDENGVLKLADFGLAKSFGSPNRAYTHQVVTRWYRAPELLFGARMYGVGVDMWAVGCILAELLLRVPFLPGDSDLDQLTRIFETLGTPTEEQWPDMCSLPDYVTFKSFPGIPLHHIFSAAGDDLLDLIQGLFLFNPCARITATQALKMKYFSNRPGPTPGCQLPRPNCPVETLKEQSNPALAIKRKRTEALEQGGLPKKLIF
- Sequence (P51946 whole entry partner): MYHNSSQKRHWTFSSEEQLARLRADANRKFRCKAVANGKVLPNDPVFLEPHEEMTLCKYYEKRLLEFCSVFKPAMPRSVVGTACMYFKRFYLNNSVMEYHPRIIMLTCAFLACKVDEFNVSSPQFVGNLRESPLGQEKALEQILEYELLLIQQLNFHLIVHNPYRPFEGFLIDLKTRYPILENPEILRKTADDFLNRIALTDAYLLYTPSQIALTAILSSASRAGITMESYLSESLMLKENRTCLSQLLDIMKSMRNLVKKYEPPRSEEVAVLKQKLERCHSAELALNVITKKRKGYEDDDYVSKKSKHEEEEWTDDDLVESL
- Sequence (P51948 whole entry partner): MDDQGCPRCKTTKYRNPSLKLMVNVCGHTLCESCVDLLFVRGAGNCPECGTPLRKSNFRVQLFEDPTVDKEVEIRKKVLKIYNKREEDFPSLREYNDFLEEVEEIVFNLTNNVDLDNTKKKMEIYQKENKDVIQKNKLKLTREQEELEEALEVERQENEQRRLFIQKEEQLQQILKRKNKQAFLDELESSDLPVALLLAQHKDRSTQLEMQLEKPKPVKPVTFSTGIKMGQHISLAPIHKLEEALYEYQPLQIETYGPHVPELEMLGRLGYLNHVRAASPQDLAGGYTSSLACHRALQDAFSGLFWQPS
- ASSAY_EXPLANATION: Determination of CDK activity (Caliper mobility shift, FAM-P8 peptide): CDK7
- Assay type: biochemical
- MEASUREMENT_CONTEXT: CDK7/CyclinH/MAT1; read-out: CDK7 enzymatic inhibitory activity (IC50)
pIC50: −log10 of the molar value.
MEASURED_PARAMETER: pIC50

// solved cases for pIC50 follow
CCN1CCC(C(C)c2ccc(Nc3ncc(F)c(-c4cc(F)c5nc(C)n(C(C)C)c5c4)n3)nc2)CC1 (single isomer, unassigned) [Example 18]	5.00 to 6.00
C=C(c1ccc(Nc2ncc(F)c(-c3cc(F)c4nc(C)n(C(C)C)c4c3)n2)nc1)C1CCN(CC)CC1	5.00 to 6.00
CC[C@@H](c1ccc(Nc2ncc(F)c(-c3cc(F)c4nc(C)n(C(C)C)c4c3)n2)nc1)N1CCNCC1	5.00 to 6.00
Cc1nc2c(F)cc(-c3nc(Nc4ccc(C=C5CCN(CCO)CC5)cn4)ncc3F)cc2n1C(C)C	5.00 to 6.00
C=C(c1ccc(Nc2ncc(F)c(-c3cc(F)c4nc(C)n(C(C)C)c4c3)n2)nc1)C1CCNCC1	5.00 to 6.00
CC(=C1CCN(C)CC1)c1ccc(Nc2ncc(F)c(-c3cc(F)c4nc(C)n(C(C)C)c4c3)n2)nc1	5.00 to 6.00
Cc1nc2c(F)cc(-c3nc(Nc4ccc([C@H](C)C5CCN(C(C)C)CC5)cn4)ncc3F)cc2n1C(C)C (single isomer, unassigned)	5.00 to 6.00
Cc1nc2c(F)cc(-c3nc(Nc4ccc(C=C5CCN(C(C)C)CC5)cn4)ncc3F)cc2n1C(C)C	4.00 to 5.00

**Q:** Given CCN1CCC(C(O)c2ccc(Nc3ncc(F)c(-c4cc(F)c5nc(C)n(C(C)C)c5c4)n3)nc2)CC1 (single isomer, unassigned) [Example 41] , state its recorded pIC50.
**A:** 6.00 to 6.30

**Q:** Given Cc1nc2c(F)cc(-c3nc(Nc4ccc([C@H](C)C5CCN(C)CC5)cn4)ncc3F)cc2n1C(C)C (single isomer, unassigned) , state its recorded pIC50.
**A:** 5.00 to 6.00

---

- SYSTEM: CDK6/cycD3 (Homo sapiens)
- Sequence (Q00534 whole entry): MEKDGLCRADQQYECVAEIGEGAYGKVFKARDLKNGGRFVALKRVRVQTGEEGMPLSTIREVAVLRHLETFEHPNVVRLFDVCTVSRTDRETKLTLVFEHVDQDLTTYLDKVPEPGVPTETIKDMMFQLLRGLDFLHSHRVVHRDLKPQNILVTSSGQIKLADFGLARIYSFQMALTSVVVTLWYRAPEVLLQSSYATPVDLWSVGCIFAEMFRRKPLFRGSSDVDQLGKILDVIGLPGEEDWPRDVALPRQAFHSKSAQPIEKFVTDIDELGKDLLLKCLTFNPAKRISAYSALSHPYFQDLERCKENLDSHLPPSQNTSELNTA
- Sequence (P30281 whole entry partner): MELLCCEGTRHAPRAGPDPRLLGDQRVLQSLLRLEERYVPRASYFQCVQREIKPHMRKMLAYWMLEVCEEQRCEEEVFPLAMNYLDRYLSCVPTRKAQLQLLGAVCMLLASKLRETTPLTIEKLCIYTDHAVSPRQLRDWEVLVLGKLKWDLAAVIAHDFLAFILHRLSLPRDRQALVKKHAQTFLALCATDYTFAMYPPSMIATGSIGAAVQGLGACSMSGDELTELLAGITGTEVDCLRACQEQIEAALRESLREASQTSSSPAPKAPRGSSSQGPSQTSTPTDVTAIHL
- ASSAY_EXPLANATION: Determination of CDK activity (Caliper mobility shift, FAM-P8 peptide): CDK6
- Type: biochemical
- MEASUREMENT_CONTEXT: CDK6/cycD3; read-out: CDK6 enzymatic inhibitory activity (IC50)
pIC50: −log10 of the molar value.
MEASURED_PARAMETER: pIC50

// solved cases for pIC50 follow
Cc1nc2c(F)cc(-c3nc(Nc4ccc([C@@H](C)C5CCN(CC(F)(F)F)CC5)cn4)ncc3F)cc2n1C(C)C	6.30 to 7.00
Cc1nc2c(F)cc(-c3nc(Nc4ccc([C@@H](C)C5CCN(C6CC6)CC5)cn4)ncc3F)cc2n1C(C)C	6.30 to 7.00
Cc1nc2c(F)cc(-c3nc(Nc4ccc([C@H](C)C5CCN(CCO)CC5)cn4)ncc3F)cc2n1C(C)C	> 7.00
Cc1nc2c(F)cc(-c3nc(Nc4ccc([C@@H](C)C5CCN(C(C)C)CC5)cn4)ncc3F)cc2n1C(C)C (single isomer, unassigned)	6.30 to 7.00
CC[C@H](c1ccc(Nc2ncc(F)c(-c3cc(F)c4nc(C)n(C(C)C)c4c3)n2)nc1)C1CCN(CC)CC1	6.30 to 7.00
Cc1nc2c(F)cc(-c3nc(Nc4ccc([C@H](O)C5CCN(C)CC5)cn4)ncc3F)cc2n1C(C)C	> 7.00
Cc1nc2c(F)cc(-c3nc(Nc4ccc([C@@H](C)C5CCN(C)CC5)cn4)ncc3F)cc2n1C(C)C (single isomer, unassigned)	6.30 to 7.00
CCN1CCC(C(C)c2ccc(Nc3ncc(F)c(-c4cc(F)c5nc(C)n(C(C)C)c5c4)n3)nc2)CC1 (single isomer, unassigned) [Example 17]	> 7.00

**Q:** Given "C=C(c1ccc(Nc2ncc(F)c(-c3cc(F)c4nc(C)n(C(C)C)c4c3)n2)nc1)C1CCN(CC)CC1" , state its recorded pIC50.
**A:** > 7.00

**Q:** Given CCN1CCC(C(C)c2ccc(Nc3ncc(F)c(-c4cc(F)c5nc(C)n(C(C)C)c5c4)n3)nc2)CC1 (single isomer, unassigned) [Example 18] , state its recorded pIC50.
**A:** 6.30 to 7.00

**Q:** Given "CC[C@H](c1ccc(Nc2ncc(F)c(-c3cc(F)c4nc(C)n(C(C)C)c4c3)n2)nc1)N1CCN(C)CC1" , state its recorded pIC50.
**A:** 5.00 to 6.00

**Q:** Given Cc1nc2c(F)cc(-c3nc(Nc4ccc(C(C)C5CCNCC5)cn4)ncc3F)cc2n1C(C)C (single isomer, unassigned) [Example 20] , state its recorded pIC50.
**A:** 6.30 to 7.00

**Q:** Given "COCCCN1CCC([C@@H](C)c2ccc(Nc3ncc(F)c(-c4cc(F)c5nc(C)n(C(C)C)c5c4)n3)nc2)CC1" , state its recorded pIC50.
**A:** > 7.00
